Known GI50 of a selection of compounds
# Tested on: ACHN
# PROTOCOL: NCI tumour cell line growth inhibition, 48 h
The source made the active and inactive calls. Rule as the data show it: active = GI50 up to about 1.1 µM and inactive = higher.

{"columns": ["COMPOUND", "GI50"],
 "data": [
  ["CN1OC2OC(=O)OC2[C@H]1[C@H]1O[C@H](c2ccccc2)OC1(C)c1cc(OC(=O)c2ccccc2)ccc1OC(=O)c1ccccc1 (some centres undefined)", "> 50 µM (inactive)"],
  ["Cc1ccc(S(=O)(=O)NC(=O)NC(Cc2ccccc2)C(=O)O)cc1 (centres undefined)", "> 100 µM (inactive)"],
  ["COc1cccc(/C=N/NC(=O)CSCC(=O)N/N=C/c2cccc(OC)c2OC)c1OC", "> 100 µM (inactive)"],
  ["CN1CCN(c2ncc3c(n2)sc2c(=O)n(-c4ccccc4)cnc23)CC1", "> 100 µM (inactive)"],
  ["Fc1ccc(C(OCCN2CCC3CCC(C2)N3C/C=C/c2cccnc2)c2ccc(F)cc2)cc1 (centres undefined)", "14.2 µM (inactive)"],
  ["COC(=O)C(=O)C(C(=O)C(=O)Nc1ccc(C)cc1C)c1nc2ccc(Cl)cc2nc1O (centres undefined)", "> 100 µM (inactive)"],
  ["Nc1n[n+]([O-])c2cc([N+](=O)[O-])ccc2[n+]1[O-]", "3.35 µM (inactive)"],
  ["CC1=NN(c2nc(N)nc(CSc3nc4n(c(=S)n3)CCN4)n2)C(C)(C)C1", "44.9 µM (inactive)"],
  ["Cc1cccc(/C(Br)=C2/OC(=O)c3ccccc32)c1", "> 100 µM (inactive)"]
]}
